- Procedure text: Physicochemical characteristics of lipid nanoparticle (LNP) entrapping siRNA (dynamic light scattering, Ribogreen entrapment, apparent pKa)
- Stated conditions: LNP sulfur lipid/DSPC/cholesterol/PEG-lipid 50/10/38.5/1.5, siRNA, N/P 3
Assay metric: pKa
// return a plain number; no unit text

The recorded pKa for CCCCCSCSCCCCCCCCC(CCCCCCCCSCSCCCCC)OC(=O)CCCN(C)C is 6.41
